ASSAY_DETAILS: yeast display, Sf9 membrane polyspecificity reagent, FACS + sequencing; frameworks hold sequencing errors
MEASURED_ATTRIBUTE: polyreactivity (PSR sort gate)

PRIMARY_SEQUENCE	MEASURED_ATTRIBUTE	RECORDED_VALUE
QVQLVESGGGLVQAGGSLRLSCAASGIIFPWYTMGWYRQAPGKERELVAAISSGGRTNYADSVKGRFTISRDNAKNTVYLQMNSLKPEDTAVYYCAAKFYRDRDWGQGTQVTVSS	polyreactivity (PSR sort gate)	high polyreactivity
QGQLVESGGGLVQAGGSLRLSCAASGSIFDTYAMGWYRQAPGKERELVAAITRRAGSTYYADSVKGRFTISRDHAKNTLYFQMNSLKPEETSVYYCAAGYDRYPGGIDEYWGQGTQVTVSS	polyreactivity (PSR sort gate)	low polyreactivity
QVQLVESGGGLVQAGGSLRLSCAASGYTFRYYVMGWYRQAPGKERELVAAISFSGGSTYYADSVKGRFTISRDTAKNSGYLQMKSLKPEDTAVYYCAARPGGGKYRGYYYWGQGTQVTVSS	polyreactivity (PSR sort gate)	high polyreactivity
QVQHVESRRGLVQAGGSLRLSCAASGFTFYSYAMGWYRQAPGKEREFVAAGSTYYADSVKGRFTISRDNAKNTDYLQMNSLKPEDTAVYYCATDPIGGWTRPQRYGDDYWGQGTQVTVSS	polyreactivity (PSR sort gate)	low polyreactivity
QVQHVESRGGLVQAGGSLRLSCAASGFISRAYAMGWYRQAPGKERELVAAISVRVGSTYYADSVKGRFTISRDNAKNTVYLQMYSLKPEDTAVYYCAALRPWPRYDYWGQGTQVTVSS	polyreactivity (PSR sort gate)	high polyreactivity

# input Entry under review: QVQLVESGGGLVQAGGSLRLSCAASGYTFIINAMGWYRQAPGKERELVASISGGGTYYADSVKGRFTISRDNAKNTVYLEMNSLKREDTAVYYCNATRRRKYYKYGGDYWGQGTQVTVSS . Reported polyreactivity (PSR sort gate)?
# output high polyreactivity

# input Need polyreactivity (PSR sort gate), item QVHLVESGGGLVQAGGSLRLSCAASVRIFQIYAMGWYRQAPGKERELVATISSGTRTYYADSVKGRFTISRDNAKNTVYLQMISLKPEDTAVYYCAKTYATRHAYWAGTRYEDDYWGQGTQVTVSS
# output high polyreactivity

* * *

ASSAY_DETAILS: yeast display, Sf9 membrane polyspecificity reagent, FACS + sequencing; frameworks hold sequencing errors
MEASURED_ATTRIBUTE: polyreactivity (PSR sort gate)

PRIMARY_SEQUENCE	polyreactivity (PSR sort gate)
QVQLVESGGGLVQAGGSLRLSCAAARYAMGWYRQAPGKERELVAAISKSGGSTYYADSVKGRFTISRDNAKNTVYLQMNSLKPEDTAVYYCAARGHAGRGEYYYWGQGTQVTVSS	high polyreactivity
QVQLVESAGGLVQAGGSLRLSCAASGFTFKSNAMGWYRQAPGKEREMVAAIDSRGDRTYYADSVKGRFTISRDNAKNTVYLQMNSLKPEDTAVYYCATKWRTYWSSGEYWGQGTQVTVSS	high polyreactivity
QVQLVESGGGLVQAGGSLRLSCAASGRIFRYYAMGWYRQAPWKERELVAVINWSGGSTYYADSVKGRFTISRDNAKNTVYLLMNSLKPEDTAVYYCNVYSVYPQFNYWGQGTQVTVSS	high polyreactivity
QVQLVESGGGLVQAGGSLRLSCAASGITFYIYAMGWYRQAPGKERELVATISWSDGRTYYADSVKGRITISRDNAKNTVYLQMNSLKPEDTAVYYCAADWWYYQFDYEYWGQGTQVTVSS	low polyreactivity

Here's the next entry for you.
# input Requested field: polyreactivity (PSR sort gate). Item: QLQLVESGGGLVQAGGSLRLSCAYYGFIFYWNAMGWYRHAPGKESQFVATITWSGGSTYYADSVTGRFTISRDNAKNTVYLQMNSLKPEDTAVYSCAVSYLSTLGRSRSDYWGQGTQVTVSS
# output low polyreactivity

* * *

ASSAY_DETAILS: yeast display, Sf9 membrane polyspecificity reagent, FACS + sequencing; frameworks hold sequencing errors
MEASURED_ATTRIBUTE: polyreactivity (PSR sort gate)

Examples from the recorded data:
PRIMARY_SEQUENCE	RECORDED_VALUE
QVQLVESGGGLVQAGGSLRLSCAASGIIFLGYARGWYRQAPGKERELVADIYSGVRTYYADSVKGRFTISRDNAKNTVYLQMNSLKPEDTAVYYCNATWTPYSSKQYYYWGQGTQVTVSS	low polyreactivity
QVQLVESGGGLVQAGGSLRLSCAASGFTFTPYAMGWYRQAPGKERELVAAITSTGGSTYYADSVKGRFTISRHNAKNTVYLQMNSLKPEDAAVYYCNAATPYSWGYRRGYWGQGTQVTVSS	high polyreactivity
QVQLVESGGGLVQAGGSLRLSCAASGRIFKYYARGGYRQAPGKERELVAAISGSGGSTFYADSVKGRFTISRDNAKNTVYLQMNSLKPEDTAVYYCNADEVVWGYNYWGQGTQVTVSS	low polyreactivity
QVQLVESGGRLVQAVGSLRLRCAAAGRTFPVYAMGWYRQAPGKERELVAAIRGRSVRKYYADSVKGRFTISRDYAKNTVYLQMNSLKPEDTAVYYCAAYYLNPGMDYWGQGTQVTVSS	high polyreactivity

Then this sequence:
# input Consider the sequence QVQLVESGGGLVQAGGSLRLSCAASGRIFGPYAMGWYRQAPGKERELVAAITRGGSTSYADSVKGRFTISRDNAKNTVDLQMISLKTEDTAVDYCAADTLRWWYGFDYWGQGTQVTVSS and give its measured polyreactivity (PSR sort gate).
# output low polyreactivity

* * *

ASSAY_DETAILS: yeast display, Sf9 membrane polyspecificity reagent, FACS + sequencing; frameworks hold sequencing errors
MEASURED_ATTRIBUTE: polyreactivity (PSR sort gate)

For orientation, consider the following solved cases.
PRIMARY_SEQUENCE	polyreactivity (PSR sort gate)
QVQLVESGGGLVQAGGSLRLSCAASGFIFWINAMGWYRQAPGKERELVAAITKNGGTTYYADSVKGRFTISRDNAKNTVYLLMNSLKPEDTAVYYCAAGGIGGDQEVEGPMNYWGQGTQVTVSS	low polyreactivity
QVQLVESGGGLVQAGGSLRLSCAASGFIFQPYAMGWYRQAPGKERELVAAITSRGGRTYYADSVKGRITISRDNAKNTVYLQMNSLKPEDTAVYYCNADIYASEYYYWGQGTQVTVSS	low polyreactivity
QVQLVESGGGLVQAGGSLRLSCAASGSIFAYNAMGWYRQAPGKEREFVAAISQCGGRTYYADSVKGRFTISRDNAKTTVYLQMNSLKPEDTAVYYCATDGIRLTRHRDYDYWGQGTQVTVSS	low polyreactivity
QVQLVESGGGLVQAGGSLRLSCAGSGGIFGSNAMGWYREAPGKERALVAAISWRGGSTYYADSVKGRFTISRDNAKNSVYLQMNSLKPEDTAGYYCAARYRWGYSTSYSYRFHYWGQGTQVTVSS	high polyreactivity

Now look at this entry.
# input Fill blank: measured polyreactivity (PSR sort gate) of the sequence QVQLEESGGGLVQAGGSLRLSCAASGNIFLIYAMGWYRQAPRKEVEMVAAISFSDDTTDYADSVKGRFTSSRDNAKNTVYLQLNSLKQEDTAVYFCAAELYYDVANTQYDYWGQGTQVTVSS is ____.
# output high polyreactivity

* * *

ASSAY_DETAILS: yeast display, Sf9 membrane polyspecificity reagent, FACS + sequencing; frameworks hold sequencing errors
MEASURED_ATTRIBUTE: polyreactivity (PSR sort gate)

The cases that follow already have their polyreactivity (PSR sort gate) on record.
PRIMARY_SEQUENCE	polyreactivity (PSR sort gate)
QVQLVESGGGLVQAGGSLRLSCAASGKIFFRYTLGWYRQAPGKERELVAAISASGGSTYYADSVKGRFTISRDNAKNTVYLQMNSLKPEDTSVYYCAARILHYTSEYYYWGQGTQVTVSS	low polyreactivity
QDQLVESGGGLVQAGGSLRLSCAASGRILRRNVMGWYRQAPGKESELVATITNSGGRTYYADSVKGRFTISRDNEKNTVYLLMNSLQPEDTAVYYCAKYGYGYTGYGYWGQGTQVTVSS	high polyreactivity
QVQLVESGGGLVQAGGSLRLSCAASGRTFVTNAMGWYRQAPGKERELVAAISSNGGSTYYADSVKGRFTISRDNAKNTVFLQMNSLKPEDTAVYYCNAEGQPLYVSWHDHRYIYGFDYWGQGTQVSVSS	low polyreactivity
QVQLVESGGGLVQAGGSLRLSCAASGSIFGRYTMGWYRQAPGKERELVAAINRSGGSTSYADSVKGRFTISRDNAKNTVYLQMNSLKPEDTAVYYCNRARSVPQFYGTYGFGYDYWGQGTQVTVSS	low polyreactivity

Shifting focus to the sequence that follows.
# input Which value of polyreactivity (PSR sort gate) has been reported for QVQLVESGGGLVQAGGSLRLSCAASGSIFGRYAMGWYRQAPGKEREFVAAINRSTGSTYYADSVKGRFTISRDNAKNTVYLQMNSLKPEDTAVYYCAARSHSPGYNRRIRGYWGQGTQVTVSS in the records?
# output high polyreactivity
